procedure details: Turbidity of surfactant/lipid compositions, formation of macromolecular complexes (Example 1)
Format: physicochemical
test conditions: 2.5% surfactant, 1% 90H lipid, ca. 0.01% S LPC co-surfactant (as 0.05% SL 80-3) in water, room temperature
parameter: Average Turbidity

compound | parameter | result
C[C@H](CCC(=O)[O-])[C@H]1CC[C@H]2[C@@H]3[C@H](O)C[C@@H]4C[C@H](O)CC[C@]4(C)[C@H]3C[C@H](O)[C@]12C.[Na+] [Sodium cholate] | Average Turbidity | 23.3 FNU
CCCCCC(=O)O | Average Turbidity | >150 FNU
O=C(O)c1ccccc1O [Salicylic Acid, 2-Hydroxybenzoic acid] | Average Turbidity | >150 FNU
CCCCCCCCCCCCCCCC(=O)O | Average Turbidity | >150 FNU
CCCCCCCC/C=C\CCCCCCCC(=O)[O-].[K+] [Potassium Oleate, Potassium oleate] | Average Turbidity | >150 FNU
